Tested on: venous blood from rhesus monkeys
Test: Hemolytic activity in vitro (standard hemolysis test)
Assay type: cell-based
Settings: fresh heparinized rhesus monkey blood, 37° C., 3 hours, absorption at 540 nm, % of maximum inducible hemolysis (distilled water = 100%); dilutions 1600-3.125 mg/l, concentration behind the value not stated
Hemolysis (%) reference

molecule | experimental_system | unit_symbol | Hemolysis (%)
CC(C)C1NC(=O)C(C(C)N)NC(=O)CNC(=O)C(CC(=O)O)NC(=O)CNC(=O)C(CC(=O)O)NC(=O)C(C(C)C(=O)O)NC(=O)C2CCCCN2C(=O)C(NC(=O)C(CC(=O)O)NC(=O)c2ccc(CCc3ccc(-c4ccccc4)cc3)cc2)C(C)NC(=O)C2CCCN2C1=O (stereo not drawn) [Example 55] | venous blood from rhesus monkeys | % | 0.5
CC(C)CCCCCCCCCCC(=O)NC(CC(=O)O)C(=O)NC1C(=O)N2CCCCC2C(=O)NC(C(C)C(=O)O)C(=O)NC(CC(=O)O)C(=O)NCC(=O)NC(CC(=O)O)C(=O)NCC(=O)NC(C(C)N)C(=O)NC(C(C)C)C(=O)N2CCCC2C(=O)NC1C (stereo not drawn) [Example 14] | venous blood from rhesus monkeys | % | 22.9
CCCCCCCCCCCCC(=O)NC(CC(=O)O)C(=O)NC1C(=O)N2CCCCC2C(=O)NC(C(C)C(=O)O)C(=O)NC(CC(=O)O)C(=O)NCC(=O)NC(CC(=O)O)C(=O)NCC(=O)NC(C(C)N)C(=O)NC(C(C)C)C(=O)N2CCCC2C(=O)NC1C (stereo not drawn) [Example 1] | venous blood from rhesus monkeys | % | 19.6
CCCCCCCc1ccc(C(=O)NC(CC(=O)O)C(=O)NC2C(=O)N3CCCCC3C(=O)NC(C(C)C(=O)O)C(=O)NC(CC(=O)O)C(=O)NCC(=O)NC(CC(=O)O)C(=O)NCC(=O)NC(C(C)N)C(=O)NC(C(C)C)C(=O)N3CCCC3C(=O)NC2C)cc1 (stereo not drawn) [Example 49] | venous blood from rhesus monkeys | % | 0.0
CCCCCCCCCCCCCC(=O)NC(CC(=O)O)C(=O)NC1C(=O)N2CCCCC2C(=O)NC(C(C)C(=O)O)C(=O)NC(CC(=O)O)C(=O)NCC(=O)NC(CC(=O)O)C(=O)NCC(=O)NC(C(C)N)C(=O)NC(C(C)C)C(=O)N2CCCC2C(=O)NC1C (stereo not drawn) [Example 8] | venous blood from rhesus monkeys | % | 19.3
CCCCCCCCCCCC(=O)NC(CC(=O)O)C(=O)NC1C(=O)N2CCCCC2C(=O)NC(C(C)C(=O)O)C(=O)NC(CC(=O)O)C(=O)NCC(=O)NC(CC(=O)O)C(=O)NCC(=O)NC(C(C)N)C(=O)NC(C(C)C)C(=O)N2CCCC2C(=O)NC1C (stereo not drawn) [Example 7] | venous blood from rhesus monkeys | % | 25.7
CCCCCCCCCCCCCCC(=O)NC(CC(=O)O)C(=O)NC1C(=O)N2CCCCC2C(=O)NC(C(C)C(=O)O)C(=O)NC(CC(=O)O)C(=O)NCC(=O)NC(CC(=O)O)C(=O)NCC(=O)NC(C(C)N)C(=O)NC(C(C)C)C(=O)N2CCCC2C(=O)NC1C (stereo not drawn) [Example 9] | venous blood from rhesus monkeys | % | 22.8
CC(C)C1NC(=O)C(C(C)N)NC(=O)CNC(=O)C(CC(=O)O)NC(=O)CNC(=O)C(CC(=O)O)NC(=O)C(C(C)C(=O)O)NC(=O)C2CCCCN2C(=O)C(NC(=O)C(CC(=O)O)NC(=O)c2ccc(CCc3ccc(CCc4ccccc4)cc3)cc2)C(C)NC(=O)C2CCCN2C1=O (stereo not drawn) [Example 56] | venous blood from rhesus monkeys | % | 0.4
CCCCCCCCCCC(=O)NC(CC(=O)O)C(=O)NC1C(=O)N2CCCCC2C(=O)NC(C(C)C(=O)O)C(=O)NC(CC(=O)O)C(=O)NCC(=O)NC(CC(=O)O)C(=O)NCC(=O)NC(C(C)N)C(=O)NC(C(C)C)C(=O)N2CCCC2C(=O)NC1C (stereo not drawn) [Example 6] | venous blood from rhesus monkeys | % | 16.5
